System: MCF-7 cells
Experiment: MTT assay, MCF-7
Type: cell-based, human
Conditions: read-out: IC50 MCF-7, 72 h treatment
pIC50: −log10 of the molar value.

{"Substance": "[Ru(bpy)2(7-BEDPPZ)](ClO4)2 [Ru(bpy)2BEDPPZ]", "Assayed system": "MCF-7 cells", "pIC50": 4.13}
